Measured attribute: melting point (°C)

• CC(C)N(C)c1cc2c(cc1Cl)NC(=O)CC(c1cccc(-n3nncc3CNC3CC3)c1)=N2 = 144
• CC(C)N(C)c1cc2c(cc1C#N)NC(=O)CC(c1cccc(-n3nncc3CO)c1)=N2 = 206
• CCCN(C)c1cc2c(cc1Cl)NC(=O)CC(c1cccc(-n3ncnc3CO)c1)=N2 = 192
• CCCN(C)c1cc2c(cc1C)NC(=O)CC(c1cccc(-c3cc(C)no3)c1)=N2 = 194
• CC(C)CN(C)c1cc2c(cc1C(F)(F)F)NC(=O)CC(c1cccc(-n3cncn3)c1)=N2 = 198
• CC(C)CN(C)c1cc2c(cc1C(F)(F)F)NC(=O)CC(c1cccc(-n3nncc3CN(C)C(C)C)c1)=N2 = 157
• CN(C)c1cc2c(cc1C(F)(F)F)NC(=O)CC(c1cccc(-c3cc(CN4CCOCC4)no3)c1)=N2 = 165
• COCCN(C)c1cc2c(cc1Cl)NC(=O)CC(c1cccc(-n3ccnn3)c1)=N2 = 156
• CN(C)Cc1cnnn1-c1cccc(C2=Nc3cc(N(C)C)c(F)cc3NC(=O)C2)c1 = 181
• CN(C)c1cc2c(cc1C(F)(F)F)NC(=O)CC(c1cccc(-n3cc(CO)cn3)c1)=N2 = 175
• CC(C)N(C)c1cc2c(cc1C(F)(F)F)NC(=O)CC(c1cccc(-n3nncc3CNC3CC3)c1)=N2 = 178
• CC(C)NCc1cnnn1-c1cccc(C2=Nc3cc(N(C)C(C)C)c(Cl)cc3NC(=O)C2)c1 = 208
• CC(C)CN(C)c1cc2c(cc1Cl)NC(=O)CC(c1cccc(-n3nncc3CN(C)C)c1)=N2 = 199
• CC(C)Nc1cc2c(cc1Cl)NC(=O)CC(c1cccc(-n3nncc3CO)c1)=N2 = 250
• CCCN(C)c1cc2c(cc1C#N)NC(=O)CC(c1cccc(-c3cc(C)no3)c1)=N2 = 133
• Cc1cc(-c2cccc(C3=Nc4cc(N(C)C)c(C)cc4NC(=O)C3)c2)on1 = 204
• CC(C)N(C)c1cc2c(cc1C(F)(F)F)NC(=O)CC(c1cccc(-n3nncc3CN3CCCC3)c1)=N2 = 175
• CC(C)CN(C)c1cc2c(cc1Cl)NC(=O)CC(c1cccc(-n3nncc3CN3CCCCC3)c1)=N2 = 169
• Cc1cc2c(cc1N(C)C)N=C(c1cccc(-n3nncc3CO)c1)CC(=O)N2 = 190
• CCCN(C)c1cc2c(cc1C(F)(F)F)NC(=O)CC(c1cccc(-c3cc(C)no3)c1)=N2 = 193
